FYI, the data here is from patent US7524853B2.

Biological target: 17β-hydroxysteroid dehydrogenase type 3 (17β-HSD type 3) (Homo sapiens, UniProt P37058)
Construct: expressed in transfected cells; host or cells: MCF-7
Sequence (P37058 whole entry): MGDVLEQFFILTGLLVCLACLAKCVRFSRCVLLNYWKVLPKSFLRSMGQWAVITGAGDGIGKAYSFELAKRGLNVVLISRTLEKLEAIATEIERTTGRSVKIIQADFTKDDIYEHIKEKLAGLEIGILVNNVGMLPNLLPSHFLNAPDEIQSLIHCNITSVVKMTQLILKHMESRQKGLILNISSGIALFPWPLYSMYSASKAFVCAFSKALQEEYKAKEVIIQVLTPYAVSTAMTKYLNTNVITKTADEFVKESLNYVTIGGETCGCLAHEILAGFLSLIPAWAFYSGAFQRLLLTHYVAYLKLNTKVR
Test: Inhibition of 17β-HSD type 3 in MCF-7 cells stably expressing the isoenzyme (tritium labeled androstenedione conversion, HPLC)
Type: cell-based
Conditions: MCF7; 1 μM test compound; MCF-7 cells expressing 17β-HSD type 3; 2 nM tritium labeled androstenedione; read-out: % Inhibition HSD3 1 μM
Listed here: items and their measured inhibition at 1 µM.
recorded_endpoint: inhibition at 1 µM (%)

>>> result_number("COc1cc(-c2nc3sc4c(O)cccc4c3c(=O)n2CC(C)C)c(Br)c(OC)c1OC")
19.7
>>> result_number("COc1cccc(-c2nc3sc4c(c3c(=O)n2Cc2ccccc2)CCCC4=O)c1")
21.9
>>> result_number("COCc1nc2sc3c(Cl)c(C=O)c(C(=O)O)c(O)c3c2c(=O)n1Cc1ccccc1")
14.7
>>> result_number("CCCCn1c(-c2cc(OC)c(OC)c(OC)c2)nc2sc3c(O)cccc3c2c1=O")
30.9
>>> result_number("COc1ccc(-c2nc3sc4c(c3c(=O)n2Cc2ccccc2)CCCC4=O)cc1")
3
>>> result_number("CCCc1nc2sc3c(O)cccc3c2c(=O)n1Cc1cc(Br)ccc1O")
-0.8
>>> result_number("COc1cc(-c2nc3sc4c(OC)cccc4c3c(=O)n2Cc2ccccc2)cc(OC)c1OC")
6.8

* * *

Molecular target: 17β-hydroxysteroid dehydrogenase type 1 (17β-HSD type 1) (Homo sapiens, UniProt P14061)
Construct: expressed in transfected cells; host or cells: MCF-7
Sequence (P14061 whole entry): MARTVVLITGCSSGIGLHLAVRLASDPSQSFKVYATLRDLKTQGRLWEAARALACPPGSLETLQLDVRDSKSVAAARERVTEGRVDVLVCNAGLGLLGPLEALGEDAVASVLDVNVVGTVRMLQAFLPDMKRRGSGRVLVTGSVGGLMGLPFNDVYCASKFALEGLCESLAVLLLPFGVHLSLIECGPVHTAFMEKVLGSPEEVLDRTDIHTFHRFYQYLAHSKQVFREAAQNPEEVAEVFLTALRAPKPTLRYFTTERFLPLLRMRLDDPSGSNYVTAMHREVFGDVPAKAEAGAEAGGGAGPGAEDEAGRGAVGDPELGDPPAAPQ
Experiment: Inhibition of 17β-HSD type 1 in MCF-7 cells stably expressing the isoenzyme (tritium labeled estrone conversion, HPLC)
Format: cell-based
Conditions: MCF7; 1 μM test compound; MCF-7 cells expressing 17β-HSD type 1; 2 nM tritium labeled estrone; read-out: % Inhibition HSD1 1 μM
From the text: Biological Testing Materials and Methods 1. Inhibition of the 17β-hydroxysteroid dehydrocienase type 1, type 2 and type 3 enzyme The compounds were screened in respect of 17β-HSD enzyme activity in vitro on established MCF-7 cell lines, each stably expressing one of the respective 17β-HSD isoenzymes. The interconversion of substrate by each isoenzyme and the 17β-HSD inhibiting activity of chemical compounds in these cell lines were detected by HPLC system. […]
recorded_endpoint: inhibition at 1 µM (%)

>>> result_number("COCCn1c(-c2cc(OC)c(OC)c(OC)c2Br)nc2sc3c(c2c1=O)CCC(Br)C3=O (stereo not shown)")
23.8
>>> result_number("COc1cc(-c2nc3sc4c(c3c(=O)n2Cc2ccccc2)CCC(Br)(Br)C4=O)c(Br)c(OC)c1OC")
27.4
>>> result_number("COc1cc(-c2nc3sc4c(c3c(=O)n2Cc2ccccc2)C(C)CCC4)cc(OC)c1OC (stereo not shown)")
16.8
>>> result_number("COc1cc(-c2nc3sc4c(OC)cccc4c3c(=O)n2Cc2ccccc2)c(Br)c(OC)c1OC")
21.5

* * *

Target: 17β-hydroxysteroid dehydrogenase type 2 (17β-HSD type 2) (Homo sapiens)
Construct: expressed in transfected cells; host or cells: MCF-7
Sequence (P37059 whole entry): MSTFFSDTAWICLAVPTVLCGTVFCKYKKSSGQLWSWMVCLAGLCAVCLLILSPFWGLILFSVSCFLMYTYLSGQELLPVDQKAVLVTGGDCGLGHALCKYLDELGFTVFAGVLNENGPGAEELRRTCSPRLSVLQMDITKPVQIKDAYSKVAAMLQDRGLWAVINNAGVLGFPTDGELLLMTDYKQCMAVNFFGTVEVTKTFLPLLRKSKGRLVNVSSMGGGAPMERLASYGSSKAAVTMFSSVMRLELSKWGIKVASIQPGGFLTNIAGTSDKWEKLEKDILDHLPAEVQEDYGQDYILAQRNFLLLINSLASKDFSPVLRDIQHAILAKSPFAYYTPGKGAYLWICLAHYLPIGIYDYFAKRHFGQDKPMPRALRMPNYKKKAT
Assay: Inhibition of 17β-HSD type 2 in MCF-7 cells stably expressing the isoenzyme (tritium labeled estradiol conversion, HPLC)
Assay type: cell-based
Settings: MCF7; 1 μM test compound; MCF-7 cells expressing 17β-HSD type 2; 2 nM tritium labeled estradiol; read-out: % Inhibition HSD2 1 μM
recorded_endpoint: inhibition at 1 µM (%)

>>> result_number("COc1cc(-c2nc3sc4c(O)cccc4c3c(=O)n2Cc2ccccc2)cc(OC)c1OC")
22.4
>>> result_number("CCSC1=C(CO)CCc2c1sc1nc(-c3ccc(OC)cc3)n(Cc3ccccc3)c(=O)c21")
4.9
>>> result_number("O=C1c2sc3nc(-c4cccs4)n(Cc4ccccc4)c(=O)c3c2CCC1Br (stereo not drawn)")
32.8
>>> result_number("COc1cc(-c2nc3sc4c(c3c(=O)n2Cc2ccccc2)CC(C)CC4=O)cc(OC)c1OC (stereo not drawn)")
25.4
>>> result_number("O=C1c2sc3nc(-c4ccc(Br)s4)n(Cc4ccccc4)c(=O)c3c2CCC1Br (stereo not drawn)")
19.2
>>> result_number("O=c1c2c3c(sc2nc(CO)n1Cc1ccccc1)CCCC3")
12.9
>>> result_number("COc1cc(-c2nc3sc4c(c3c(=O)n2Cc2cccnc2)CCCC4)cc(OC)c1OC")
13.6
>>> result_number("COCCn1c(-c2cccs2)nc2sc3c(O)c(Br)ccc3c2c1=O")
29.1
>>> result_number("CCC(C)Cn1c(-c2cc(OC)c(OC)c(OC)c2)nc2sc3c(c2c1=O)CCCC3 (stereo not drawn)")
11.7
>>> result_number("COc1cc(-c2nc3sc4c(c3c(=O)n2-c2ccccc2)CCCC4=O)cc(OC)c1OC")
-5.3
>>> result_number("COc1cc(-c2nc3sc4c(O)cccc4c3c(=O)n2CC2CCCO2)c(Cl)c(OC)c1OC (stereo not drawn)")
10.3
>>> result_number("COc1cc(-c2nc3sc4c(c3c(=O)n2Cc2ccccc2)CC(C)CC4)cc(OC)c1OC (stereo not drawn)")
8.3
>>> result_number("COCCn1c(-c2cc(OC)c(OC)c(OC)c2Br)nc2sc3c(c2c1=O)CCC(Br)C3=O (stereo not drawn)")
24.7
>>> result_number("CCCCn1c(-c2cccs2)nc2sc3c(c2c1=O)CCCC3=O")
9.9
>>> result_number("Cc1nc2sc3c(c2c(=O)n1-c1ccccc1)CCCC3=O")
5.5
>>> result_number("CCOC(=O)c1nc2sc3c(c2c(=O)n1-c1ccccc1)CCCC3")
13.8
>>> result_number("COc1cc(-c2nc3sc4c(c3c(=O)n2Cc2ccccc2)CCC(C=O)=C4Cl)cc(OC)c1OC")
-3.2
>>> result_number("COc1cc(-c2nc3sc4c(c3c(=O)n2CC(C)C)CCCC4)cc(OC)c1OC")
8.2
>>> result_number("CCCc1nc2sc3c(O)cccc3c2c(=O)n1Cc1ccc(Br)o1")
50.7
>>> result_number("COCc1nc2sc3c(c2c(=O)n1Cc1ccccc1)CCCC3")
8.5
>>> result_number("O=c1c2c3c(sc2nc(-c2cc(O)c(O)c(O)c2)n1Cc1ccccc1)CCCC3")
17.9
>>> result_number("CC(=O)OCc1nc2sc3c(c2c(=O)n1Cc1ccccc1)CCCC3=O")
20.2
>>> result_number("COc1ccc(-c2nc3sc4cc(C=O)ccc4c3c(=O)n2Cc2ccccc2)cc1")
-5.4
>>> result_number("CCC(C)Cn1c(-c2cc(OC)c(OC)c(OC)c2)nc2sc3c(c2c1=O)CCC(Br)C3=O (stereo not drawn)")
-0.4
